# Subject Of Test: 5-hydroxytryptamine receptor 2A (Homo sapiens) (UniProt P28223)
# Sequence (P28223 whole entry, looked up): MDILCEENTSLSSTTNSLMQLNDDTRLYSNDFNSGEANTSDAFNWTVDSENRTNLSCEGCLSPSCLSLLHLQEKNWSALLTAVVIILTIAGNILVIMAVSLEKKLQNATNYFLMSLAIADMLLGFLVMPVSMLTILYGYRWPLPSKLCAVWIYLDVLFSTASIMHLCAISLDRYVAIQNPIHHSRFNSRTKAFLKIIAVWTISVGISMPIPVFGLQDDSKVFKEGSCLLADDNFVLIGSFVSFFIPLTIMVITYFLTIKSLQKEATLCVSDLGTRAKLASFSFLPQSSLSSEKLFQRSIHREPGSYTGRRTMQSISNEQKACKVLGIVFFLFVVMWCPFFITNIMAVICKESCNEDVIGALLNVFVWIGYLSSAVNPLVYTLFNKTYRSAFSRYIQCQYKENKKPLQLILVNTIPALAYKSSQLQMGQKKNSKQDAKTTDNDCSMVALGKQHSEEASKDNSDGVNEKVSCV
# Assay Info: 5-hydroxytryptamine receptor 2A (HTR2A) small molecule agonists, cell-based qHTS assay (AID 1963587); note: nearly all actives have a fitted effect of over 30% in size
# Assay Context: HTR2A-CHO cells, calcium flux fluorescence, agonist mode; series mostly up to 76.8 µM
Results filed as inconclusive are left out. Calls of active or inactive are those of the source. Calls come from the whole dose curve.
Possible outcomes: active, inactive

>>> category_label("CCCCOc1ccc(N)cc1")
"inactive"
>>> category_label("N[C@@H](CCC(=O)O)C(=O)O")
"inactive"
>>> category_label("COC(=O)C1=C(C)NC(C)=C(C(=O)OCC(C)=O)C1c1ccccc1[N+](=O)[O-] (stereo not given)")
"inactive"
>>> category_label("CCCCOC(=O)CO")
"inactive"
>>> category_label("O=C1C=CC(=O)N1c1ccccc1")
"active"
>>> category_label("N=C(N)N")
"inactive"
>>> category_label("NCCc1ccn[nH]1")
"inactive"
>>> category_label("O=C1C=CC(=O)N1")
"inactive"
>>> category_label("O=C1NC(=O)c2cc([N+](=O)[O-])ccc21")
"active"
>>> category_label("COC(=O)c1ccc(C(=O)OC)c(C(=O)OC)c1")
"inactive"
>>> category_label("CC(C)C(O)(c1ccc(OC(F)(F)F)cc1)c1cncnc1 (stereo not given)")
"inactive"
>>> category_label("Cc1cc(O)c2ccccc2c1O")
"inactive"
>>> category_label("O=C(Cl)c1ccc(F)c(Cl)c1")
"inactive"
>>> category_label("CC1=CC=C(C(C)C)CC1")
"inactive"
>>> category_label("O=[N+]([O-])c1ccc2ncccc2c1")
"inactive"

The reported measurements were obtained from PubChem BioAssay (Tox21).
